These measurements were taken from ChEMBL document CHEMBL2176949.

biological target: Neuronal acetylcholine receptor; alpha4/beta2 (Homo sapiens, UniProt P17787+P43681); assay: Displacement of [3H]nicotine from human alpha4beta2 nAChR expressed in human SH-EP1 cells
Sequence (P17787 whole entry): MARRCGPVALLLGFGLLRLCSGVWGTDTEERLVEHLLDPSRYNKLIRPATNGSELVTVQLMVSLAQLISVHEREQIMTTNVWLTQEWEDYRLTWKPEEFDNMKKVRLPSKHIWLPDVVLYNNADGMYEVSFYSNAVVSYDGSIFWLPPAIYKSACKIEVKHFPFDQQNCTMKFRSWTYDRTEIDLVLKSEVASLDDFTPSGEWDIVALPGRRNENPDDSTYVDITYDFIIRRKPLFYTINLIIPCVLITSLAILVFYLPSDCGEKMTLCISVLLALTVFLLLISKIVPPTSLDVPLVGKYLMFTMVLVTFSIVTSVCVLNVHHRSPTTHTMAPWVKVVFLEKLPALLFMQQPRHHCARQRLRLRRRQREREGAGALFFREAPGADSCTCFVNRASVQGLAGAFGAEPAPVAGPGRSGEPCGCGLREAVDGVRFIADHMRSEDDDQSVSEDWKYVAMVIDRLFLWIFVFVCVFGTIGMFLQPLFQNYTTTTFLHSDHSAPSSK
Sequence (P43681 whole entry): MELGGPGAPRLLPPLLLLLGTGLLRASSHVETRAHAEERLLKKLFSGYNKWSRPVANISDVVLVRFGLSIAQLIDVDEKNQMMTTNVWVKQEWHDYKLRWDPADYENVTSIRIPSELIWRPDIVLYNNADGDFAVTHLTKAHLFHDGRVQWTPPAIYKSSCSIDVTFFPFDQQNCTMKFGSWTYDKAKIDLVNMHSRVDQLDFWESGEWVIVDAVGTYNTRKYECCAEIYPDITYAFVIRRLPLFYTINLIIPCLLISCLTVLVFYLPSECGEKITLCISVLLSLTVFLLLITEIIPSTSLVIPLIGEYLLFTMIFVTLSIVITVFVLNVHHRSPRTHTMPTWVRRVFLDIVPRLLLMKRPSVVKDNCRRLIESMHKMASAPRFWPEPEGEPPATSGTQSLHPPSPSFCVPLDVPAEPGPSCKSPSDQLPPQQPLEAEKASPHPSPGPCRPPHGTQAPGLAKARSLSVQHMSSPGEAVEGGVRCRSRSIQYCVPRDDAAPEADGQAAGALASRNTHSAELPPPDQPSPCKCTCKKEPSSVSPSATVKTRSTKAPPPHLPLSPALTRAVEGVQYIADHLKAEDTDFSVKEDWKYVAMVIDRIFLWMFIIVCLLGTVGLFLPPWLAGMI
Please provide measured pKi for the entries that follow.
Remember the convention: pKi equals -log10 of concentration in molar.

Incoming: Annotate the compound COc1cncc(C2=CC3CC(C2)CN(C)C3)c1 (stereo not given) with its measured pKi.
Outgoing: 9.22

Incoming: Annotate the compound C1=C(c2ccc3nccnc3c2)CC2CNCC1C2 (stereo not given) with its measured pKi.
Outgoing: 7.07

Incoming: Annotate the compound COc1cc(C2=CC3CC(C2)CN(C)C3)cnc1Cl (stereo not given) with its measured pKi.
Outgoing: 8.36

Incoming: Annotate the compound CNCC/C=C/c1cccnc1 [RIVANICLINE] with its measured pKi.
Outgoing: 7.59

Incoming: Annotate the compound C1=C(c2ccc(-c3ccccc3)nc2)CC2CNCC1C2 (stereo not given) with its measured pKi.
Outgoing: 6.98

Incoming: Annotate the compound Fc1ccc(C2=CC3CNCC(C2)C3)cn1 (stereo not given) with its measured pKi.
Outgoing: 9.40

Incoming: Annotate the compound CN1CC2C=C(c3cnccc3Cl)CC(C2)C1 (stereo not given) with its measured pKi.
Outgoing: 5.94

Incoming: Annotate the compound Clc1ccc(C2=CC3CNCC(C2)C3)cn1 (stereo not given) with its measured pKi.
Outgoing: 9.40

Incoming: Annotate the compound C1=C(c2cncc(Oc3ccccc3)c2)CC2CNCC1C2 (stereo not given) with its measured pKi.
Outgoing: 9.15

Incoming: Annotate the compound COc1ccc(C2=CC3CC(C2)CN(C)C3)cn1 (stereo not given) with its measured pKi.
Outgoing: 6.10

Incoming: Annotate the compound Fc1ccc(Oc2cncc(C3=CC4CNCC(C3)C4)c2)cc1 (stereo not given) with its measured pKi.
Outgoing: 9.22

Incoming: Annotate the compound "Fc1cncc(C2=C[C@@H]3CNC[C@H](C2)C3)c1" with its measured pKi.
Outgoing: 9.70

Incoming: Annotate the compound CC(C)Oc1cncc(C2=CC3CC(C2)CN(C)C3)c1 (stereo not given) with its measured pKi.
Outgoing: 8.66

Incoming: Annotate the compound C1=C(c2ccncc2)CC2CNCC1C2 (stereo not given) with its measured pKi.
Outgoing: 7.25

Incoming: Annotate the compound CN1CC2C=C(c3cncc(F)c3)CC(C2)C1 (stereo not given) with its measured pKi.
Outgoing: 7.89
